test system: Liver microsome; assay: Intrinsic clearance in human liver microsomes; assay type: ADME
measure: CLint (µL/min/mg)

- chemical-structure: "CC(C)C[C@@H]1NC(=O)[C@H](CC(C)C)N(C)C(=O)[C@H](CC(C)C)N(C)C(=O)C[C@H](O)[C@H](CC(C)C)NC(=O)[C@@H]2CCCN2C(=O)[C@H](CC(C)C)N(C)C(=O)C[C@@H]1O"
  unit-info: "µL/min/mg"
  reported: 183
- chemical-structure: "CC(C)C[C@@H]1NC(=O)[C@H]2CCCN2C(=O)[C@@H](CC(C)C)N(C)C(=O)C[C@@H](O)[C@@H](CC(C)C)NC(=O)[C@@H](CC(C)C)N(C)C(=O)[C@@H](CC(C)C)N(C)C(=O)C[C@@H]1O"
  unit-info: "µL/min/mg"
  reported: 142
- chemical-structure: "C/C1=C\\[C@@H](CC(C)C)NC(=O)[C@@H]2CCCN2C(=O)[C@@H](CC(C)C)N(C)C(=O)C[C@H](O)[C@H](CC(C)C)NC(=O)[C@@H](CC(C)C)N(C)C(=O)[C@@H](CC(C)C)N(C)C1=O"
  unit-info: "µL/min/mg"
  reported: 216
